Consider the following log10 of Ki values measured on human serotonin 2C receptor (h-5-HT2C) (Homo sapiens (Human)).
Sequence (P28335 whole entry, looked up): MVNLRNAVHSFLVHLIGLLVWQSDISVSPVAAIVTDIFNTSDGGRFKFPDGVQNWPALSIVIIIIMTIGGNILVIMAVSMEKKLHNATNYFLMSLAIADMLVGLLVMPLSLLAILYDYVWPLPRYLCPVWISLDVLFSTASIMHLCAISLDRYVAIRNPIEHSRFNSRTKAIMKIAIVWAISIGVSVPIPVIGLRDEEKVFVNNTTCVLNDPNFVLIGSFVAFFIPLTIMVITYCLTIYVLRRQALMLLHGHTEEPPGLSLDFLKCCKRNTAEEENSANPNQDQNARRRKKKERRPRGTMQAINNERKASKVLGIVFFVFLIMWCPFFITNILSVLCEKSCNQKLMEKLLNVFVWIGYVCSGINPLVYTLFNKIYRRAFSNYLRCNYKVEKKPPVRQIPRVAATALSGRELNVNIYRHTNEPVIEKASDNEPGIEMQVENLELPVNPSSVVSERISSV
All values: log10 Ki [nM].

Some solved cases for reference:
compound	log10 of Ki
CNCc1cc(OCc2ccccc2)n(C(C)C2CCCC2)n1.Cl (centres unmarked) [Example 288, hydrochloride]	1.28
CNCc1cc(OCc2cc(Cl)ccc2F)n(CCC(C)(C)F)n1.Cl [Example 482, hydrochloride]	0.41
CNCc1cc(OCc2ccccc2)n(C(CO)C2CCCCC2)n1.Cl (centres unmarked) [Example 328, hydrochloride]	2.29
CNCc1cc(OCc2cc(F)c(F)cc2F)n(Cc2ccc(C)cc2)n1	0.82
CNCc1cc(OCc2cc(F)ccc2F)n(CCC(C)(C)F)n1.Cl [Example 481, hydrochloride]	1.34

Provide log10 of Ki, recorded with human serotonin 2C receptor (h-5-HT2C) (Homo sapiens (Human)), of "CNCc1cc(OCc2cc(F)ccc2F)n(CC2(C(F)(F)F)CCCC2)n1" 1.11

Fill: log10 of Ki (human serotonin 2C receptor (h-5-HT2C) (Homo sapiens (Human))) for this compound "CNCc1cc(OCc2ccc(F)cc2F)n(CC2CCCC2)n1" 0.34

Report value only: log10 of Ki, human serotonin 2C receptor (h-5-HT2C) (Homo sapiens (Human)), "CNCc1cc(OCc2ccc(F)cc2)n(CC2(C(F)(F)F)CCCC2)n1" 1.28

---

Each item that follows carries a reported Ki.
Molecular target: human serotonin transporter (h-SERT) (Homo sapiens (Human), UniProt P31645)
Experiment: [3H] citalopram binding assay to evaluate human serotonin reuptake inhibitory action (h-SERT binding assay)
Details: [3H] citalopram binding; read-out: Test Ex. 1: h-SERT binding inhibition constant Ki
Number in nM, nothing else.

Worked cases, answers included:
compound	target-or-system	unit-of-measurement	Ki
CNCc1cc(OCc2cc(Cl)ccc2F)n(CC2(C(F)(F)F)CCCC2)n1	human serotonin transporter (h-SERT) (Homo sapiens (Human), UniProt P31645)	nM	3.8
CNCc1cc(OCc2cc(F)c(F)cc2F)n(CCC(C)(C)C)n1	human serotonin transporter (h-SERT) (Homo sapiens (Human), UniProt P31645)	nM	5.7
CNCc1cc(OCc2cccc(OC)c2)n(CC2CCCCC2)n1	human serotonin transporter (h-SERT) (Homo sapiens (Human), UniProt P31645)	nM	4.9
CNCc1cc(OCc2ccccc2)n(C(C)C2CCCC2)n1.Cl (centres unmarked) [Example 288, hydrochloride]	human serotonin transporter (h-SERT) (Homo sapiens (Human), UniProt P31645)	nM	0.86
Fc1ccc(F)c(COc2cc(CNC3CC3)nn2CC2CCCCC2)c1	human serotonin transporter (h-SERT) (Homo sapiens (Human), UniProt P31645)	nM	8.5

Note down Ki recorded for "CNCc1cc(OCc2ccccc2)n(CC2CCCCC2)n1" 1.5

Supply measured Ki of "CCC(CC)n1nc(CNC)cc1OCc1ccc(F)cc1Cl" in your reply. 1.5

Return reported Ki. Input compound: "CNCc1cc(OCc2cc(Cl)ccc2F)n(CC2(OC)CCCCC2)n1" 4.5

Note down Ki recorded for CNCc1cc(OCc2ccc(F)cc2C)n(CC2CCCCO2)n1 (centres unmarked) 1.9

Indicate its recorded Ki; the compound in question is "CNCc1cc(OCc2cc(F)c(F)cc2F)n(CCC2CC2)n1" 0.99

Give recorded Ki. "CNCc1cc(OCc2ccccc2F)n(CCC(C)C)n1" 3.4

Query Ki for "CNCc1cc(OCc2ccc(F)cc2)n(CC2CCCC2)n1" 6.6

Entry "CNCc1cc(OCc2ccccc2)n(CCC2CCCC2)n1" needs its Ki filled in; supply it. 0.91

Tell me measured Ki for "CNCc1cc(OCc2cc(Cl)ccc2F)n(CC2CCCC2)n1" please. 4.6
